system: MGLL; test: Michaelis-Menten kinetics, hydrolysis of 4-methylcoumarin butyrate (4MC-B); assay type: biochemical, human; conditions: substrate 4MC-B; 4-5 nM MGLL, 20 mM Pipes pH 7, 150 mM NaCl, 37° C.; average of 2 or 4 assays
Labelling field: enter T if recorded Kcat is less than 0.8 s⁻¹. Enter F if it equals or exceeds that cut-off.

{"columns": ["molecule", "qualitative.label"],
 "data": [
  ["mut-MGLL 9-303, L169S, L176S: N-terminally truncated human MGLL 9-303 with L169S, L176S (protein, UniProt Q99685 9-303, looked up, variant L169S L176S) RTPQSIPYQDLPHLVNADGQYLFCRYWKPTGTPKALIFVSHGAGEHSGRYEELARMLMGLDLLVFAHDHVGHGQSEGERMVVSDFHVFVRDVLQHVDSMQKDYPGLPVFLLGHSMGGAIAILTAAERPGHFAGMVLISPLVLANPESATTFKVLAAKVLNSVLPNLSSGPIDSSVLSRNKTEVDIYNSDPLICRAGLKVCFGIQLLNAVSRVERALPKLTVPFLLLQGSADRLCDSKGAYLLMELAKSQDKTLKIYEGAYHVLHKELPEVTNSVFHEINMWVSQRTATAGTASPP", "T"],
  ["mut-MGLL 9-297, L169S, L176S: truncated human MGLL 9-297 with L169S, L176S (protein, UniProt Q99685 9-297, looked up, variant L169S L176S) RTPQSIPYQDLPHLVNADGQYLFCRYWKPTGTPKALIFVSHGAGEHSGRYEELARMLMGLDLLVFAHDHVGHGQSEGERMVVSDFHVFVRDVLQHVDSMQKDYPGLPVFLLGHSMGGAIAILTAAERPGHFAGMVLISPLVLANPESATTFKVLAAKVLNSVLPNLSSGPIDSSVLSRNKTEVDIYNSDPLICRAGLKVCFGIQLLNAVSRVERALPKLTVPFLLLQGSADRLCDSKGAYLLMELAKSQDKTLKIYEGAYHVLHKELPEVTNSVFHEINMWVSQRTATA", "T"],
  ["mut-MGLL. 1-303, L167Q, L174Q: human MGLL 1-303 with cap-domain mutations L167Q, L174Q (protein, UniProt Q99685 1-303, looked up, variant L167Q L174Q) Monoglyceride lipase: MPEESSPRRTPQSIPYQDLPHLVNADGQYLFCRYWKPTGTPKALIFVSHGAGEHSGRYEELARMLMGLDLLVFAHDHVGHGQSEGERMVVSDFHVFVRDVLQHVDSMQKDYPGLPVFLLGHSMGGAIAILTAAERPGHFAGMVLISPLVLANPESATTFKVLAAKVQNLVLPNQSLGPIDSSVLSRNKTEVDIYNSDPLICRAGLKVCFGIQLLNAVSRVERALPKLTVPFLLLQGSADRLCDSKGAYLLMELAKSQDKTLKIYEGAYHVLHKELPEVTNSVFHEINMWVSQRTATAGTASPP", "F"],
  ["mut-MGLL 1-303, L171Q: human MGLL 1-303 with cap-domain mutation L171Q (protein, UniProt Q99685 1-303, looked up, variant L171Q) Monoglyceride lipase: MPEESSPRRTPQSIPYQDLPHLVNADGQYLFCRYWKPTGTPKALIFVSHGAGEHSGRYEELARMLMGLDLLVFAHDHVGHGQSEGERMVVSDFHVFVRDVLQHVDSMQKDYPGLPVFLLGHSMGGAIAILTAAERPGHFAGMVLISPLVLANPESATTFKVLAAKVLNLVQPNLSLGPIDSSVLSRNKTEVDIYNSDPLICRAGLKVCFGIQLLNAVSRVERALPKLTVPFLLLQGSADRLCDSKGAYLLMELAKSQDKTLKIYEGAYHVLHKELPEVTNSVFHEINMWVSQRTATAGTASPP", "F"],
  ["mut-MGLL 1-303, L167Q, L171Q: human MGLL 1-303 with cap-domain mutations L167Q, L171Q (protein, UniProt Q99685 1-303, looked up, variant L167Q L171Q) Monoglyceride lipase: MPEESSPRRTPQSIPYQDLPHLVNADGQYLFCRYWKPTGTPKALIFVSHGAGEHSGRYEELARMLMGLDLLVFAHDHVGHGQSEGERMVVSDFHVFVRDVLQHVDSMQKDYPGLPVFLLGHSMGGAIAILTAAERPGHFAGMVLISPLVLANPESATTFKVLAAKVQNLVQPNLSLGPIDSSVLSRNKTEVDIYNSDPLICRAGLKVCFGIQLLNAVSRVERALPKLTVPFLLLQGSADRLCDSKGAYLLMELAKSQDKTLKIYEGAYHVLHKELPEVTNSVFHEINMWVSQRTATAGTASPP", "F"]
]}
